The values you see were collected from patent EP4671273A1.

Would you mind telling me the reported pKd of each entry?
- assayed system: T1, human PD-1 (#PD1-H82E4, AcroBiosystems) (human, UniProt Q15116 25-167)
- T1 construct: bought
- T1 sequence (Q15116 25-167 limits assumed): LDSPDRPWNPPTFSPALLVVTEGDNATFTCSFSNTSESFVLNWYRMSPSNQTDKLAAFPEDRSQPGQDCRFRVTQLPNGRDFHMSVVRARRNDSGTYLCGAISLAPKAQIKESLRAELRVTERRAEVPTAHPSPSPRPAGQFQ
- procedure summary: SPR, PD-1 on captured IgG1
Give only the number. pKd is defined as minus log10 of concentration in molar units.

Asked: Give the reported value of pKd for this record: OKM590 (antibody, human IgG1, V domains shown, human IgG1) VH: VQLVQSGAEVKKPGASVKVSCKASGYTFTNFYIHWVRQAPGQGLEWMGSIYPNYGITAYNQKFKDRVTMTVDTSTSTAYMELRSLRSDDTAVYYCARGYSYAMDVWGQGTTVTVSS VL: DIQMTQSPSSVSASVGDRVTITCSASQGISGDLNWYQQKPGKAPKLLIYHTSQLHSDVPSRFSGSGSGTDFTLTISSLQPEDFATYYCQGYSKDLLTFGGGTKLEIK
Given back: 9.02

Asked: Please look at this binder and report its pKd: JPK663 (antibody, human IgG1, V domains shown, human IgG1) VH: VQLVQSGAEVKKPGASVKVSCKASGYTFTNFYIHWVRQAPGQGLEWMGSIYPNYGITAYNQKFKDRVTMTVDTSTSTAYMELRSLRSDDTAVYYCARGYSYAMDYWGQGTTVTVSS VL: DIQMTQSPSSVSASVGDRVTATCSASQGISGDLNWYQQKPGKAPKLLIYHTSQLHSDVPSRFSGSGSGTDFTLTISSLQPEDFATYYCQGYSKDLLTFGGGTKLEIK
Given back: 9.37

Asked: Return the recorded pKd value; entry: ICW519 (antibody, human IgG1, V domains shown, human IgG1) VH: VQLVQSGAEVKKPGASVKVSCKASGYTFTNFYIHWVRQAPGQGLEWMGSIYPNYGITAYNQKFQDRVTMTVDTSTSTAYMELRSLRSDDTAVYYCARGYSYAMDYWGQGTTVTVSS VL: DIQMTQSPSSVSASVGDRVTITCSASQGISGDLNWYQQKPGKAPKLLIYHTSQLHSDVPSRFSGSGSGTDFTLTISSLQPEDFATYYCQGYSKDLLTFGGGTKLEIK
Given back: 9.29

Asked: For the binder ACH836 (antibody, human IgG1, V domains shown, human IgG1) VH: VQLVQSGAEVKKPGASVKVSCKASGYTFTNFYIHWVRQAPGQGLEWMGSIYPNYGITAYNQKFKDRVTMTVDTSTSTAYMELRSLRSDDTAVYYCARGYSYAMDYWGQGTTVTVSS VL: DIQMTQSPSSVSASVGDRVTITCSASQGASGDLNWYQQKPGKAPKLLIYHTSQLHSDVPSRFSGSGSGTDFTLTISSLQPEDFATYYCQGYSKDLLTFGGGTKLEIK , give its measured pKd value.
Given back: 9.47

Asked: # return recorded pKd for input YCF391 (antibody, human IgG1, V domains shown, human IgG1) VH: VQLVQSGAEVKKPGASVKVSCKASGYTFTNFYIHWVRQAPGQGLEWMGSTYPNYGITAYNQKFKDRVTMTVDTSTSTAYMELRSLRSDDTAVYYCARGYSYAMDYWGQGTTVTVSS VL: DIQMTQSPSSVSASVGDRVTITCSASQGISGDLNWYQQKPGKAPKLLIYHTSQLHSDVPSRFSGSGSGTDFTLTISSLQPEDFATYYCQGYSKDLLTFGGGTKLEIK
Given back: 9.09

Asked: Quickly give me recorded pKd for ZTD928 (antibody, human IgG1, V domains shown, human IgG1) VH: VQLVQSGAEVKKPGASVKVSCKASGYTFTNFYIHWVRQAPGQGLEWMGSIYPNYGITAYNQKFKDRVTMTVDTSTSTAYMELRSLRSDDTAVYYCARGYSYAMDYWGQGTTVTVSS VL: DIQMTQSPSSVSASVGDRVTITCSASQGISGDLNWYQQKPGKAPKLLIYHTSQLHSDVPSRFSGSGSGTDFTLTISSLQPEDFATYYCQGYSKDTLTFGGGTKLEIK
Given back: 9.10

Asked: Give the value of pKd reported for the following: DKR699 (antibody, human IgG1, V domains shown, human IgG1) VH: VQLVQSGAEVKKPGASVKVSCKASGYTFTNFYIHWVRQAPGQGLEWMGSIYPNYGDTAYNQKFKDRVTMTVDTSTSTAYMELRSLRSDDTAVYYCARGYSYAMDYWGQGTTVTVSS VL: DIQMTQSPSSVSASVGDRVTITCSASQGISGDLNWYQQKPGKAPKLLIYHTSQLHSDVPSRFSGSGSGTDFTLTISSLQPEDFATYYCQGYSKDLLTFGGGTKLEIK
Given back: 9.22

Asked: State its pKd: NRT742 (antibody, human IgG1, V domains shown, human IgG1) VH: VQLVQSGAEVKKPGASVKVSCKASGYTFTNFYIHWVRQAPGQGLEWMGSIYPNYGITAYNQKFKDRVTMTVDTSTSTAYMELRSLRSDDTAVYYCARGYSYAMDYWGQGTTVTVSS VL: DIQMTQSPSSVSASVGDRVTITCSASQGISGDLNWYQQKPGKAPKLLIYHASQLHSDVPSRFSGSGSGTDFTLTISSLQPEDFATYYCQGYSKDLLTFGGGTKLEIK
Given back: 9.02

Asked: Tell me measured pKd for PEV057 (antibody, human IgG1, V domains shown, human IgG1) VH: VQLVQSGAEVKKPGASVKVSCKASGYTFTNFYIHWVRQAPGQGLEWMGSIYPNYGITAYNQKFKDRVTMTVDTSTSTAYMELRSLRSDDTATYYCARGYSYAMDYWGQGTTVTVSS VL: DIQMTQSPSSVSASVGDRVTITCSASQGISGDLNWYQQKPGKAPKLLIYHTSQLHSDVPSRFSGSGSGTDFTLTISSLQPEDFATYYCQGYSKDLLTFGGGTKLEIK please.
Given back: 9.28

Asked: Name the recorded pKd of the binder listed here: WAZ460 (antibody, human IgG1, V domains shown, human IgG1) VH: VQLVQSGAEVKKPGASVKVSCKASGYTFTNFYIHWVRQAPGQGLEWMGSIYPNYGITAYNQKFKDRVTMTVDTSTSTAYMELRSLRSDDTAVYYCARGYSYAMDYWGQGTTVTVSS VL: DIQMTQSPSSVSASVGDRVTITCRASQGISGDLNWYQQKPGKAPKLLIYHTSQLHSDVPSRFSGSGSGTDFTLTISSLQPEDFATYYCQGYSKDLLTFGGGTKLEIK
Given back: 9.29

Asked: Identify the reported pKd for the following entry. XVT458-z2-m6 (antibody, human IgG1, V domains shown, human IgG1; also called anti-PD-1 antibody clone XVT458-z2-m6) VH: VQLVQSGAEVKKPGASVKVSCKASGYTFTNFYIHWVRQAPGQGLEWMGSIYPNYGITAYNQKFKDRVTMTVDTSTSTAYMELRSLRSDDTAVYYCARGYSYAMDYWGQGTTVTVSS VL: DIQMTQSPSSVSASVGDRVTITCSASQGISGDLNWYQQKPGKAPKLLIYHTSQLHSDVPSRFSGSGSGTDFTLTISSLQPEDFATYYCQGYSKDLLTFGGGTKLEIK
Given back: 9.28

Asked: Please indicate pKd recorded for KOB135 (antibody, human IgG1, V domains shown, human IgG1) VH: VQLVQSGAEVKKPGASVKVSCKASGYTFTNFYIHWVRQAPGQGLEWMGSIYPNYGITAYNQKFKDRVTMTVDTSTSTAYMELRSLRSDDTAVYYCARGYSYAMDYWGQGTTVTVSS VL: DIQMTQSPSSVSASVGDRVTITCSASQGISGDLNWYQQKPGKAPKLLIYHTSQQHSDVPSRFSGSGSGTDFTLTISSLQPEDFATYYCQGYSKDLLTFGGGTKLEIK
Given back: 9.30
